Listed here are compounds together with their documented TGI.
- Test system: SK-MEL-5 melanoma
- Test description: NCI tumour cell line growth inhibition, 48 h

Compound	TGI
CCc1c(C#N)c(SC(C(N)=O)c2ccccc2)nc(N2CCC(N)CC2)c1C#N (centres undefined)	28.3 µM
COc1ccc(C(=O)/C=C/c2ccc(OCc3ccccc3)c(OC)c2)cc1OC	17.2 µM
CC(=O)O[C@H]1C[C@@H](OC(C)=O)[C@@](C)(O)[C@@H]2[C@@H](OC(C)=O)[C@@]3(O)[C@H](/C=C(/CCl)[C@H]4O[C@H]4[C@@H](OC(C)=O)[C@@]12C)OC(=O)[C@@H]3C	> 25 µM
FC(F)(F)c1cnc(N/N=C(/c2ccccc2)c2ccccn2)c(Cl)c1	21.2 µM
CC(C)(CC1(C)NC(=O)NC1=O)OCc1ccccc1 (centres undefined)	> 100 µM

We now examine a further compound.
IN: Form field: reported TGI of CCN1C(=O)N2C(OC)c3ccccc3C(Br)C2(OC)C1=O (centres undefined)
OUT: > 100 µM

---

Listed here are molecules together with their documented GI50.
- Tested on: MALME-3M melanoma
- Test description: NCI tumour cell line growth inhibition, 48 h

Example cases with answers are listed next.
                                  structure      system_tested  measured_quantity  reported_result
0  CC1(C)N=C(N)N=C(N)N1c1ccc(OCCCCNC(=O)Nc2cccc(S(=O)(=O)F)c2)c(Cl)c1  MALME-3M melanoma               GI50         29600 nM
1  O=C(Nc1nc2c(s1)CCc1c-2c(Br)n(Cc2ccccc2)c1Br)c1ccccc1  MALME-3M melanoma               GI50          2570 nM
2                    c1ccc2c(c1)[O][Sn][O]2  MALME-3M melanoma               GI50       90.9 µg/mL
3   CCN(CC)CCCNc1c2ccc(Cl)cc2nc2ccc(OC)cc12  MALME-3M melanoma               GI50          1600 nM
4  C=CC[PH+](c1ccccc1)c1ccccc1.C=CC[PH+](c1ccccc1)c1ccccc1.[Pt+2].[S-]c1ncccn1.[S-]c1ncccn1  MALME-3M melanoma               GI50          2500 nM

IN: Form field: reported GI50 of C=C(C)[C@@H]1CC[C@]2(C(=O)n3ccnc3)CC[C@]3(C)[C@H](CC[C@@H]4[C@@]5(C)CCCNC(C)(C)[C@@H]5CC[C@]43C)[C@@H]12
OUT: 1310 nM

IN: What do you have for N=C(N)c1ccc(OCCCCCOc2ccc(C(=N)N)cc2)cc1 ?
OUT: 1810 nM

IN: What do you have for Cc1ccc(NC2=CC(=O)C(=O)c3ccccc32)c(C)c1 ?
OUT: 1760 nM

IN: What do you have for Cc1nn2c(-c3nc4cc(Cl)c(Cl)cc4[nH]3)c(-c3ccc(F)cc3)nc2s1 ?
OUT: 3230 nM

---

Listed here are compounds together with their documented TGI.
- Tested on: RPMI-8226 leukemia
- Test description: NCI tumour cell line growth inhibition, 48 h

IN: Form field: reported TGI of CC(C)c1cc(C(C)C)c(Cl)c(Cl)c1O (tested in a mixture with another compound)
OUT: > 100 µM

IN: What do you have for CCCCCC(/C=C/[C@@H]1[C@@H](C(O)CCCCCC(=O)OC)C(=O)C[C@H]1O[Si](C)(C)C(C)(C)C)OCOCCOC (some centres undefined) ?
OUT: > 25.7 µM

IN: What do you have for Nc1c(C(=O)Nc2ccccn2)sc2nc3c(cc12)CCCCCC3 ?
OUT: 30 µM

IN: What do you have for CC(=O)O[C@H]1C[C@@H](OC(C)=O)[C@@](C)(O)[C@@H]2[C@@H](OC(C)=O)[C@@]3(O)[C@H](/C=C(/CCl)[C@H]4O[C@H]4[C@@H](OC(C)=O)[C@@]12C)OC(=O)[C@@H]3C ?
OUT: > 25 µM

IN: What do you have for N=C(N)c1ccc(N=Nc2c(O)ccc3cc(O)ccc23)cc1 ?
OUT: > 100 µM

IN: What do you have for CC(=O)c1sc2c(c1O)c(=O)n(-c1ccccc1)c(=S)n2-c1ccccc1 ?
OUT: > 100 µM

IN: What do you have for O=S(=O)(O)c1ccc2c(N=Nc3c(O)ccc4ccccc34)cccc2c1 ?
OUT: > 100 µM

IN: What do you have for Cc1ccccc1CNc1c2ccccc2nc2ccccc12 ?
OUT: 4.56 µM

IN: What do you have for CCOC(=O)C1=CSC2=NC3=C(CCC/C3=C\c3cc(OC)c(OC)c(OC)c3)C(c3cc(OC)c(OC)c(OC)c3)N12 (centres undefined) ?
OUT: 1.67 µM

Numbers sourced from PubChem BioAssay (NCI).
